# assayedTarget: vanilloid receptor 1 (VR1/TRPV1 receptor) (Homo sapiens, UniProt Q8NER1)
# Construct: expressed in transfected cells; host or cells: CHO K1 cells (ECACC), stably transfected
# Sequence (Q8NER1 whole entry): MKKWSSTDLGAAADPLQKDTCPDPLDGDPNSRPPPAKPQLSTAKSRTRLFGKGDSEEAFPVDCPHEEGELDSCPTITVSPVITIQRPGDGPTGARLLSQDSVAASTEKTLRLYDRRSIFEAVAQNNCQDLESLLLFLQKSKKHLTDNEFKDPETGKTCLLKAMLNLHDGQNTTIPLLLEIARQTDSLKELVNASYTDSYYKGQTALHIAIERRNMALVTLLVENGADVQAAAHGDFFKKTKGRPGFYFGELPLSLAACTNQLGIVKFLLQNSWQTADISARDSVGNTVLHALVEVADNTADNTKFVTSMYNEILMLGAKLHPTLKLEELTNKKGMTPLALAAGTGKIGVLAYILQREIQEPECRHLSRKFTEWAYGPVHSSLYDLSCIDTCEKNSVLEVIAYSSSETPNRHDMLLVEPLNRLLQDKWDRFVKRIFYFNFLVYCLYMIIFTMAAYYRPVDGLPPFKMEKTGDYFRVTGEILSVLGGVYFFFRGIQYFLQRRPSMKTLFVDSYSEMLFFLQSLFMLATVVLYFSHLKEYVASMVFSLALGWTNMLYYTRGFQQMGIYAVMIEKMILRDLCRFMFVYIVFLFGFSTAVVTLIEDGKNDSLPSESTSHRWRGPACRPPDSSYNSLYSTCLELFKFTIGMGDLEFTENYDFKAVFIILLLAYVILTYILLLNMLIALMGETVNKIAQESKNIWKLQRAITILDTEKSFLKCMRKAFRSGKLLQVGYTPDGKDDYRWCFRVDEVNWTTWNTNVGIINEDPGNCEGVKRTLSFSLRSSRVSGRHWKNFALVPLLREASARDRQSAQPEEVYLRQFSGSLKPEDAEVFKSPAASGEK
# measurementProtocol: VR1/TRPV1 receptor affinity, capsaicin stimulus (human)
# Format: cell-based, human being
# settings: Tables 8-12, read-out: (f) Ki (human being) [nM] Cap
endpointLabel: Ki
Answer format reminder: number followed by unit.

stdin: Reported Ki for CC(C(=O)NCc1cc(C(C)(C)C)nn1-c1cccc(Cl)c1)c1ccc(CNS(N)(=O)=O)c(F)c1 (centres unmarked) [Example B93] : what is it?
stdout: 4 nM

stdin: And what about the compound CCNCc1ccc(NC(=O)NCc2cc(C(C)(C)C)nn2-c2cccc(Cl)c2)cc1F [Example B25] ?
stdout: 45 nM

stdin: And what about the compound CC(C(=O)NCc1cc(C(C)(C)C)nn1-c1ccc(Cl)cc1)c1ccc(CNS(C)(=O)=O)c(F)c1 (centres unmarked) [Example B20] ?
stdout: 52 nM

stdin: And what about the compound CC(C)(C)c1cc(CNC(=O)Nc2ccc(CNS(N)(=O)=O)c(F)c2)n(-c2cccc(Cl)c2)n1 [Example B46] ?
stdout: 9 nM

stdin: And what about the compound CC(C(=O)NCc1cc(C(F)(F)F)nn1-c1cccc(Cl)c1)c1ccc(CNS(C)(=O)=O)c(Cl)c1 (centres unmarked) [Example B22] ?
stdout: 3 nM

stdin: And what about the compound CC(=O)NCc1ccc(C(C)C(=O)NCc2cc(C(F)(F)F)nn2-c2cccc(Cl)c2)cc1F (centres unmarked) [Example B66] ?
stdout: 29 nM

stdin: And what about the compound O=Cc1ccc(NC(=O)NCc2cc(C(F)(F)F)nn2-c2cccc(Cl)c2)cc1F [Example E61] ?
stdout: 23 nM

Next compound, Ki to be filled in.
stdin: Reported Ki for CCS(=O)(=O)NCc1ccc(NC(=O)NCc2cc(C(C)(C)C)nn2-c2cccc(C)c2)cc1 [Example B92] : what is it?
stdout: 67 nM
